Attribute: PBM binding z-score
test system: LXRb:RXRa (NR concentration 270 nM, RXRa partner concentration 90 nM); assay: PBM binding z-score (relative to random genomic background probes); higher = stronger binding; sequences stand for … in GC…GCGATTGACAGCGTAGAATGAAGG
resultType: PBM binding z-score

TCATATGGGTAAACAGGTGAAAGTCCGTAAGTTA :: 0.449
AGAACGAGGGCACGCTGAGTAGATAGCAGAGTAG :: 0.201
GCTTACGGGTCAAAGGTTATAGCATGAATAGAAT :: 6.1
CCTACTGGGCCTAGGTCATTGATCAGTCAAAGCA :: 1.31
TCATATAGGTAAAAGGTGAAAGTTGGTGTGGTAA :: 2.44
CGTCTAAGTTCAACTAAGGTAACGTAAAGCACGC :: 2.8

Ref: the supplement of paper PMC6555819
